Where these numbers come from: patent US9617282B2

The molecules listed here are annotated with their IC50.
# Target entity: IRAK4 (Homo sapiens (Human))
# Sequence (Q9NWZ3 whole entry, species assumed): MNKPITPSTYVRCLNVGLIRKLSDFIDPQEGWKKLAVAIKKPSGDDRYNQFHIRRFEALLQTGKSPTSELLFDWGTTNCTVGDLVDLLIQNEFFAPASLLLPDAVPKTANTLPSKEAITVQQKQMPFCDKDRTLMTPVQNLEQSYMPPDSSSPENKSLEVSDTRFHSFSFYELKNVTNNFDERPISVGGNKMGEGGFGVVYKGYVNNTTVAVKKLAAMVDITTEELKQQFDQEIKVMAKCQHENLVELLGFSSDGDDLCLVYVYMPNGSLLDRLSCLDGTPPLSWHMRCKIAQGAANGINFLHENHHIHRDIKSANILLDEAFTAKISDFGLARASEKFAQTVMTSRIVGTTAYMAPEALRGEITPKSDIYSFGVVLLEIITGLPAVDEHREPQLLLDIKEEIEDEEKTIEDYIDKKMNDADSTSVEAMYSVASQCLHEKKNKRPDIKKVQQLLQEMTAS
# Protocol details: IRAK-4 biochemical kinase assay, AlphaScreen format
# Measurement parameters: 1 nM IRAK4, 1.6 μM peptide, 10 μM ATP, 3.5 h at RT; class symbols

# Chemical smiles, IC50
measured = [
    ("CN1CCOCCNC(=O)c2nn(CCN3CCOCC3)cc2NC(=O)c2csc(n2)-c2ccnc1c2", "< 100 nM"),
    ("CC(C)(C)OC(=O)N1CCC(CCn2cc3c(n2)C(=O)NCCOCCOc2cc(ccn2)-c2nc(cs2)C(=O)N3)CC1", "< 100 nM"),
    ("NC(=O)c1ccc2c(c1)NC(=O)c1csc(n1)-c1ccnc(c1)NCCCCCO2", "< 100 nM"),
    ("CN1CCCCCOc2ccccc2NC(=O)c2coc(n2)-c2ccnc1c2", "< 1000 nM"),
    ("Cn1cc2c(n1)C(=O)NCCCCCCNc1cc(ccn1)-c1nc(co1)C(=O)N2", "< 100 nM"),
    ("Cn1cc2c(n1)C(=O)NCCOCCOc1cc(ccn1)-c1csc(n1)C(=O)N2", "< 10000 nM"),
    ("CN1CCN(CCn2cc3c(n2)C(=O)NCCOCCNc2cc(ccn2)-c2nc(cs2)C(=O)N3)CC1", "< 100 nM"),
    ("O=C(O)c1ccc2c(c1)NC(=O)c1csc(n1)-c1ccnc(c1)NCCCCCO2", "< 10000 nM"),
]
